- Target desc: T1, Human PD-1 (ACROBiosystems, Inc., Catalog No. PD1-H5221) (human, UniProt Q15116 25-167)
- T1 construct: Bought recombinant protein; also called huPD1-His; PD-1-his; not shown: His tag of the bought protein (huPD1-His)
- T1 sequence (Q15116 25-167 limits assumed): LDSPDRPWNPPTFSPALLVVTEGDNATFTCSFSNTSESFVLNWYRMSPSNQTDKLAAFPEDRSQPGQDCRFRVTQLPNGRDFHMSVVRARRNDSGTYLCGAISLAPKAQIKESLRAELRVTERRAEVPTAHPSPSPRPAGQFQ
- Procedure details: SPR (Biacore), scFv captured on anti-FLAG, PD-1 as analyte
Quantity name: kon
The reply should read as a number followed by its unit.

| Binder | kon |
| --- | --- |
| h1E9-1 (VH3-21-Vκ1-9) scFv (scFv, Whole scFv chain with FlagHis tag) scFv: MEVQLVESGGGLVKPGGSLRLSCAASGFTFSTFGMSWVRQAPGKGLEWVSTISGGGSDTYYPDSVQGRFTISRDNAKNSLYLQMNSLRAEDTAVYYCARQGYDVYSWFAYWGQGTLVTVSSGGGGSGGGGSGGGGSDIQLTQSPSFLSASVGDRVTITCRASESVDNSGISFMSWYQQKPGKAPKLLIYTASNQGSGVPSRFSGSGSGTEFTLTISSLQPEDFATYYCQQSKEVPWTFGQGTKVEIKGSGDYKDDDDKGSGHHHHHH | 182000 M⁻¹ s⁻¹ |

With those in mind, consider the next binder.
Ask: Please look up its kon: m1B10 scFv (scFv, Mouse single-chain antibody, whole chain with FlagHis tag) scFv: MSDVQLQESGPGLVKPSQSLSLTCTVTGHSITSDYAWNWIRQFPGNKLEWMGYISYSGRTSYNPSLTSRISITRDTSKNQFFLQLNSVTTEDTATYYCARGYALDYWGQGTSVTVSSGGGGSGGGGSGGGGSQIVLSQSPAILSASPGEKVTMTCRTSSSVNYMHWFQQKPGSSPKPWIYATSKLASGVPARFSGSGSGTSYSLTISRVEAEDAATYFCQQWISDPWTFGGGTKLEIKGSGDYKDDDDKGSGHHHHHH
Result: 186000 M⁻¹ s⁻¹
